Data credit: patent US20110039847A1

- Target Under Test: SIRT1 (Homo sapiens)
- Run Description: Mass spectrometry based SIRT1 deacetylation (activation) assay
- Assay type: biochemical
- Settings: 25 min, 0.5 μM peptide substrate, 120 μM βNAD+, 10 nM SIRT1, 25 min at 25° C., read-out: % Fold Act. (percent maximum fold activation)
Assay Endpoint: Emax

Solved entries (count: 8):
Problem: Reported Emax for CCN(CCN(C)C)c1cc(C(=O)Nc2ccccc2-c2nnc(C(C)C)s2)nc(-c2ccccc2)n1 [Compound 83] : what is it?
Result: ≥ 300%

Problem: Reported Emax for CN(C)CCNc1cc(C(=O)Nc2ccccc2-c2ncc(C(C)(C)C)s2)nc(-c2ccccc2)n1 [Compound 37] : what is it?
Result: 150 to 300%

Problem: Reported Emax for Cc1cnc(-c2ccccc2NC(=O)c2cc(NCCN(C)C)nc(-c3ccccc3)n2)o1 [Compound 23] : what is it?
Result: ≥ 300%

Problem: Reported Emax for CNCCN(C)c1cc(C(=O)Nc2ccccc2-c2nnc(-c3ccccc3)s2)nc(-c2ccccc2)n1 [Compound 32] : what is it?
Result: ≥ 300%

Problem: Reported Emax for CCc1nnc(-c2ccccc2NC(=O)c2cc(N(C)CCNC)nc(-c3ccccc3)n2)s1 [Compound 52] : what is it?
Result: 150 to 300%

Problem: Reported Emax for CN(C)CCN(C)c1cc(C(=O)Nc2ccccc2-c2nnc(-c3ccccc3)s2)nc(-c2ccccc2)n1 [Compound 179] : what is it?
Result: 150 to 300%

Problem: Reported Emax for CCN(CCN(C)C)c1cc(C(=O)Nc2ccccc2C(=O)NC2CCCN(C(=O)OC(C)(C)C)C2)nc(-c2ccccc2)n1 (stereo not shown) [Compound 172] : what is it?
Result: 150 to 300%

Problem: Reported Emax for O=C(Nc1ccccc1-c1nnc(N2CCOCC2)s1)c1cc(OC[C@H](O)CO)nc(-c2ccccc2)n1 [Compound 109] : what is it?
Result: ≥ 300%

// each compound listed below needs its Emax
1. O=C(Nc1ccccc1-c1ncc(-c2ccccc2)s1)c1cc(N2CCNCC2)nc(-c2ccccc2)n1 [Compound 18]
2. O=C(Nc1ccccc1-c1ncc(-c2ccccc2)s1)c1cc(NCCN2CCCC2)nc(-c2ccccc2)n1 [Compound 19]
3. CC(C)c1nnc(-c2ccccc2NC(=O)c2cc(NCCN(C)C)nc(-c3ccccc3)n2)s1 [Compound 72]
4. CCN(CC)CCNc1cc(C(=O)Nc2ccccc2C(C)=O)nc(-c2ccccc2)n1 [Compound 135]
5. CCN(CCN(C)C)c1cc(C(=O)Nc2ccccc2-c2ncc(-c3ccccc3)o2)nc(-c2ccccc2)n1 [Compound 64]
6. CN(C)CCNc1cc(C(=O)Nc2ccccc2C#N)nc(-c2ccccc2)n1 [Compound 4]

Result:
["150 to 300%", "150 to 300%", "≥ 300%", "≥ 300%", "150 to 300%", "150 to 300%"]

// each compound listed below needs its Emax
1. CCN(CCN(C)C)c1cc(C(=O)Nc2ccccc2C(=O)NC2CCNCC2)nc(-c2ccccc2)n1 [Compound 167]
2. CCN(CCOC)c1cc(C(=O)Nc2ccccc2-c2ncc(C(C)(C)C)o2)nc(-c2ccccc2)c1 [Compound 85]
3. CCN(CCN(C)C)c1cc(C(=O)Nc2ccccc2C(=O)N[C@@H]2CCCC[C@H]2O)nc(-c2ccccc2)n1 [Compound 171]
4. CCN(CCN(C)C)c1cc(C(=O)Nc2ccccc2C(=O)N[C@@H]2CCCC[C@@H]2O)nc(-c2ccccc2)n1 [Compound 170]
5. CN(C)CCNc1cc(C(=O)Nc2ccccc2C(=O)Nc2ccccc2)nc(-c2ccccc2)n1 [Compound 128]
6. CN(C)CCNc1cc(C(=O)Nc2ccccc2-c2nncs2)nc(-c2ccccc2)n1 [Compound 26]

Result:
1: ≥ 300%; 2: ≥ 300%; 3: ≥ 300%; 4: ≥ 300%; 5: 150 to 300%; 6: ≥ 300%

// each compound listed below needs its Emax
1. CCN(CCN(C)C)c1cc(C(=O)Nc2ccccc2-c2nnc(C(=O)N3CCOCC3)s2)nc(-c2ccccc2)n1 [Compound 87]
2. CNCCN(C)c1cc(C(=O)Nc2ccccc2-c2nncs2)nc(-c2ccccc2)n1 [Compound 40]
3. CC(C)(C)c1cnc(-c2ccccc2NC(=O)c2cc(OC[C@@H](O)CO)cc(-c3ccccc3)n2)o1 [Compound 76]

Result:
1. ≥ 300%
2. ≥ 300%
3. ≥ 300%

* * *

- Target Under Test: SIRT1 (Homo sapiens, UniProt Q96EB6)
- Sequence (Q96EB6 whole entry): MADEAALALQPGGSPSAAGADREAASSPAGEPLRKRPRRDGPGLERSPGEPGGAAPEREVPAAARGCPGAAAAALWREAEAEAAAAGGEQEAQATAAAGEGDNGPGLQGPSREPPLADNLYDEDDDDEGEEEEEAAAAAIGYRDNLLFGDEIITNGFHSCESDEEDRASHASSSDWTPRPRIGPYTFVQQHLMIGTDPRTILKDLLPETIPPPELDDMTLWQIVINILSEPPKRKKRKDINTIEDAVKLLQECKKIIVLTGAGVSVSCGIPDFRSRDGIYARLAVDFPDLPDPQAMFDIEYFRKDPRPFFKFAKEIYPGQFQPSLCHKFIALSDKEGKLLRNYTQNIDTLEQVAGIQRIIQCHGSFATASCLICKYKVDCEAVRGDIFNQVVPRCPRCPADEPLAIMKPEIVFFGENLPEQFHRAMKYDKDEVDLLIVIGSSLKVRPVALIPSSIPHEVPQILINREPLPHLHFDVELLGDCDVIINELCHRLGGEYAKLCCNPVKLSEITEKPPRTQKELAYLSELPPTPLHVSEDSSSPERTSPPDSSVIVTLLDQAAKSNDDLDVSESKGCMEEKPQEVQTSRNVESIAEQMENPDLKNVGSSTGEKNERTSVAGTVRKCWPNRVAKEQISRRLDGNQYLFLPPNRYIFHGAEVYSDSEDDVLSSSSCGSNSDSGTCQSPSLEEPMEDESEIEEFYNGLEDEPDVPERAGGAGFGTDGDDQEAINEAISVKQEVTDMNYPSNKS
- Run Description: Mass spectrometry based SIRT1 deacetylation (activation) assay
- Format: biochemical
- Settings: 25 min, 0.5 μM peptide substrate, 120 μM βNAD+, 10 nM SIRT1, 25 min at 25° C., read-out: % Fold Act. (percent maximum fold activation)
Structures can show the parent of a compound that is named as a salt.
Assay Endpoint: Emax

Solved entries (count: 8):
Problem: Reported Emax for `Cc1cccc(NC(=O)c2ccccc2NC(=O)c2cc(NCCN(C)C)nc(-c3ccccc3)n2)c1` : what is it?
Result: ≥ 300%

Problem: Reported Emax for `CN(C)CCNC(=O)c1ccccc1NC(=O)c1cc(NCCN(C)C)nc(-c2ccccc2)n1` : what is it?
Result: 150 to 300%

Problem: Reported Emax for `CN(C)CCNc1cc(C(=O)Nc2ccccc2-c2nnc(-c3ccccc3)s2)nc(-c2ccccc2)n1` : what is it?
Result: 150 to 300%

Problem: Reported Emax for `CCN(CCN(C)C)c1cc(C(=O)Nc2ccccc2-c2nnc(SC)s2)nc(-c2ccccc2)n1` : what is it?
Result: ≥ 300%

Problem: Reported Emax for `O=C(Nc1ccccc1-c1nnc(N2CCOCC2)s1)c1cc(N2CCOCC2)nc(-c2ccccc2)n1` : what is it?
Result: 150 to 300%

Problem: Reported Emax for `CCN(CCOC)c1cc(C(=O)Nc2ccccc2-c2nnc(N3CCOCC3)s2)nc(-c2ccccc2)n1` : what is it?
Result: 150 to 300%

Problem: Reported Emax for `CCN1CCN(c2cc(C(=O)Nc3ccccc3-c3nnc(C4CCOCC4)s3)nc(-c3ccccc3)n2)CC1=O` : what is it?
Result: 150 to 300%

Problem: Reported Emax for `CCN1CCN(c2cc(C(=O)Nc3ccccc3-c3nncs3)nc(-c3ccccc3)n2)CC1=O` : what is it?
Result: 150 to 300%

// each molecule listed below needs its Emax
1. Cc1nnc(-c2ccccc2NC(=O)c2cc(NCCN(C)C)nc(-c3ccccc3)n2)o1
2. CN(C)CCNc1cc(C(=O)Nc2ccccc2C(N)=O)nc(-c2ccccc2)n1
3. O=C1CN(c2cc(C(=O)Nc3ccccc3-c3nnc(N4CCOCC4)s3)nc(-c3ccccc3)n2)CCN1
4. CCc1nnc(-c2ccccc2NC(=O)c2cc(NCCN(C)C)nc(-c3ccccc3)n2)s1
5. CCN(CCN(C)C)c1cc(C(=O)Nc2ccccc2-c2nnc([S+](C)[O-])s2)nc(-c2ccccc2)n1 (centres unmarked)
6. CN(C)CCNc1cc(C(=O)Nc2ccccc2-c2nnc(-c3ccncc3)s2)nc(-c2ccccc2)n1

Result:
≥ 300%
≥ 300%
≥ 300%
150 to 300%
≥ 300%
≥ 300%

// each molecule listed below needs its Emax
1. NC(=O)c1nnc(-c2ccccc2NC(=O)c2cc(N3CCN4CCC[C@H]4C3)nc(-c3ccccc3)n2)s1
2. CCN(CCN(C)C)c1cc(C(=O)Nc2ccccc2-c2nnc(C3CCOCC3)s2)nc(-c2ccccc2)n1 [Compound 93, hydrochloride]

Result:
["150 to 300%", "≥ 300%"]

// each molecule listed below needs its Emax
1. CN(C)CCNc1cc(C(=O)Nc2ccccc2C(=O)NCCS(C)(=O)=O)nc(-c2ccccc2)n1
2. CCN(CCN(C)C)c1cc(C(=O)Nc2ccccc2-c2nncs2)nc(-c2ccccc2)n1

Result:
1: 150 to 300%; 2: ≥ 300%

// each molecule listed below needs its Emax
1. CC(=O)c1ccccc1NC(=O)c1cc(N2CCNCC2)nc(-c2ccccc2)n1
2. COCCN(CCOC)c1cc(C(=O)Nc2ccccc2-c2nnc(N3CCOCC3)s2)nc(-c2ccccc2)n1

Result:
["≥ 300%", "150 to 300%"]

* * *

- Target Under Test: SIRT1 (Homo sapiens)
- Run Description: Mass spectrometry based SIRT1 deacetylation (activation) assay
- Type: biochemical
- Settings: 25 min, 0.5 μM peptide substrate, 120 μM βNAD+, 10 nM SIRT1, 25 min at 25° C., read-out: % Fold Act. (percent maximum fold activation)
Assay Endpoint: Emax

Solved entries (count: 3):
Problem: Reported Emax for CN(C)CCNc1cc(C(=O)Nc2ccccc2C(=O)Nc2ccccc2C(N)=O)nc(-c2ccccc2)n1 [Compound 150] : what is it?
Result: ≥ 300%

Problem: Reported Emax for CN(C)CCNc1cc(C(=O)Nc2ccccc2-c2c[nH]c(-c3ccccc3)n2)nc(-c2ccccc2)n1 [Compound 15] : what is it?
Result: ≥ 300%

Problem: Reported Emax for CN(C)CCNc1cc(C(=O)Nc2ccccc2C(=O)NCCC(=O)O)nc(-c2ccccc2)n1 [Compound 130] : what is it?
Result: 150 to 300%

// each molecule listed below needs its Emax
1. CCN(CC)C(=O)c1ccccc1NC(=O)c1cc(NCCN(C)C)nc(-c2ccccc2)n1 [Compound 124]
2. CCN(CCN(C)C)c1cc(C(=O)Nc2ccccc2C(=O)NC2CCN(C(=O)OC(C)(C)C)C2)nc(-c2ccccc2)n1 (stereo not shown) [Compound 173]

Result:
1: 150 to 300%; 2: ≥ 300%
